measured.on: human V1a receptor (Homo sapiens, UniProt P37288)
Sequence (P37288 whole entry): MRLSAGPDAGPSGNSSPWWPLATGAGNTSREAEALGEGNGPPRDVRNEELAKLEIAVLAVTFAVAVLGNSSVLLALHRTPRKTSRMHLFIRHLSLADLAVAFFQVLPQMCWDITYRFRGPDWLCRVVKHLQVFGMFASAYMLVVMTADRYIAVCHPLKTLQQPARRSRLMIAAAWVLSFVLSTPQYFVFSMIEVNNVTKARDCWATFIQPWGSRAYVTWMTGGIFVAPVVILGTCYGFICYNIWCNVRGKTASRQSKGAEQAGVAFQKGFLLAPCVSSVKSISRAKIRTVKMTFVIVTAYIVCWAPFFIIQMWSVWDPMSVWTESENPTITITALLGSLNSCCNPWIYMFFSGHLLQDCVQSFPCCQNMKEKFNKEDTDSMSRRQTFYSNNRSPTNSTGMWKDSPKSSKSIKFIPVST
protocol.description: Cellular in vitro assay for determining vasopressin receptor activity (V1a, aequorin luminescence)
condition.details: CHO cell line transfected with the human V1a receptor; [Arg8]-vasopressin at EC50 concentration; read-out: IC50 hV1a
pIC50: −log10 of the molar value.
attribute.measured: pIC50

Below, each entry is followed by its recorded pIC50 result.
O=C(NC(CO)c1nc(Cn2nc(-c3ccc(Cl)cc3)n(C[C@H](O)C(F)(F)F)c2=O)nn1-c1ccccc1Cl)C(F)(F)F (single isomer, unassigned) [Example 96]
9.26
CC(=O)NC(CO)c1nc(Cn2nc(-c3ccc(Cl)cc3)n(C[C@H](O)C(F)(F)F)c2=O)nn1-c1ccccc1Cl (single isomer, unassigned) [Example 92]
8.29

[A] CC(C)(C)OCC(NS(C)(=O)=O)c1nc(Cn2nc(-c3ccc(Cl)cc3)n(C[C@H](O)C(F)(F)F)c2=O)nn1-c1ccccc1Cl (single isomer, unassigned) [Example 84]
[B] C[C@H](OC(N)=O)c1nc(Cn2nc(-c3ccc(Cl)cc3)n(C[C@H](O)C(F)(F)F)c2=O)nn1-c1ccncc1Cl
[C] CC(C)(C)OCC(NS(C)(=O)=O)c1nc(Cn2nc(-c3ccc(Cl)cc3)n(C[C@H](O)C(F)(F)F)c2=O)nn1-c1ccccc1Cl (mixture of isomers) [Example 82]
*Q* Your job: order these 3 records by pIC50, ascending. Your answer should be the labels, listed in the requested order.
*A* B, A, C

---

measured.on: human V2 receptor (Homo sapiens, UniProt P30518)
Sequence (P30518 whole entry): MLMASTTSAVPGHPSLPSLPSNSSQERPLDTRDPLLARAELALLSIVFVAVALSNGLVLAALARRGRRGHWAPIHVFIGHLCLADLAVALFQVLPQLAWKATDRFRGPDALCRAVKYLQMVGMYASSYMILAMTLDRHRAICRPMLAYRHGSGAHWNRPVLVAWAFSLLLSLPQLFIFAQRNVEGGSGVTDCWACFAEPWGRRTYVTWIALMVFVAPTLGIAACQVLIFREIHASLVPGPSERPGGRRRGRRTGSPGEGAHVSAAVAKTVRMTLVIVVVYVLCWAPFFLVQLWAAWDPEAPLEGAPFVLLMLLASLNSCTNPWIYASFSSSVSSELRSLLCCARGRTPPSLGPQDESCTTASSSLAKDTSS
protocol.description: Cellular in vitro assay for determining vasopressin receptor activity (V2, CRE-luciferase)
condition.details: CHO cell line transfected with the human V2 receptor; [Arg8]-vasopressin at EC50 concentration; read-out: IC50 hV2
attribute.measured: IC50 (nM)

CS(=O)(=O)NC1(c2nc(Cn3nc(-c4ccc(Cl)cc4)n(C[C@H](O)C(F)(F)F)c3=O)nn2-c2ccccc2Cl)CC1 [Example 78]
9.7

[I] CC(=O)NC(COC(C)(C)C)c1nc(Cn2nc(-c3ccc(Cl)cc3)n(C[C@H](O)C(F)(F)F)c2=O)nn1-c1ccccc1Cl (single isomer, unassigned) [Example 89]
[II] CC(NC(=O)C(F)(F)F)c1nc(Cn2nc(-c3ccc(Cl)cc3)n(C[C@H](O)C(F)(F)F)c2=O)nn1-c1ccccc1Cl (single isomer, unassigned) [Example 74]
[III] CCNC(=O)OCc1nc(Cn2nc(-c3ccc(Cl)cc3)n(C[C@H](O)C(F)(F)F)c2=O)nn1-c1ccccc1Cl [Example 47]
[IV] CC(=O)NC(C)c1nc(Cn2nc(-c3ccc(Cl)cc3)n(C[C@H](O)C(F)(F)F)c2=O)nn1-c1ccccc1Cl (single isomer, unassigned) [Example 65]
[V] C[C@@H](OC(N)=O)c1nc(Cn2nc(-c3ccc(Cl)cc3)n(C[C@H](O)C(F)(F)F)c2=O)nn1-c1ncccc1F [Example 13]
*Q* Your job: order these 5 records by IC50, ascending. Your answer should be the labels, listed in the requested order.
*A* III, IV, II, V, I
(III: 7.16 nM, IV: 10.8 nM, II: 18 nM, V: 35 nM, I: 129 nM)

---

measured.on: human V1a receptor (Homo sapiens)
Construct: expressed in transfected cells; host or cells: CHO K1 (ATCC), also stably transfected with a modified aequorin
protocol.description: Cellular in vitro assay for determining vasopressin receptor activity (V1a, aequorin luminescence)
Assay type: cell-based
condition.details: selectivity ratio of IC50 hV2 to IC50 hV1a
Where a name gives a salt, the structure may show the parent alone.
attribute.measured: ratio IC50 hV2/hV1a

O=C1NC(c2nc(Cn3nc(-c4ccc(Cl)cc4)n(C[C@H](O)C(F)(F)F)c3=O)nn2-c2ccccc2Cl)CO1 (single isomer, unassigned) [Example 100]
20.2
CN1C(=O)CCC1c1nc(Cn2nc(-c3ccc(Cl)cc3)n(C[C@H](O)C(F)(F)F)c2=O)nn1CCC(F)(F)F (single isomer, unassigned) [Example 132]
93.5

[P] CCNC(=O)OCc1nc(Cn2nc(-c3ccc(Cl)cc3)n(C[C@H](O)C(F)(F)F)c2=O)nn1-c1cccc(F)c1
[Q] CS(=O)(=O)NC(CO)c1nc(Cn2nc(-c3ccc(Cl)cc3)n(C[C@H](O)C(F)(F)F)c2=O)nn1-c1ccccc1Cl (single isomer, unassigned) [Example 86]
*Q* Parameter metric = ratio IC50 hV2/hV1a. Return the lower-valued option from P and Q . Write down the label attached to your selection.
*A* P

[1] CN1C(=O)CCC1c1nc(Cn2nc(-c3ccc(Cl)cc3)n(C[C@H](O)C(F)(F)F)c2=O)nn1-c1ccccc1Cl (single isomer, unassigned) [Example 71]
[2] O=C1CC[C@@H](c2nc(Cn3nc(-c4ccc(Cl)cc4)n(C[C@H](O)C(F)(F)F)c3=O)nn2-c2cnccc2Cl)N1
*Q* Parameter metric = ratio IC50 hV2/hV1a. Return the lower-valued option from 1 and 2 . Write down the label attached to your selection.
*A* 1

[a] CC(C)(C)OCC(NC(=O)C(F)(F)F)c1nc(Cn2nc(-c3ccc(Cl)cc3)n(C[C@H](O)C(F)(F)F)c2=O)nn1-c1ccccc1Cl (mixture of isomers)
[b] Cc1ccccc1-n1nc(Cn2nc(-c3ccc(Cl)cc3)n(C[C@H](O)C(F)(F)F)c2=O)nc1C(C)N (mixture of isomers) [Example 59, trifluoroacetate]
[c] O=C(NC(CO)c1nc(Cn2nc(-c3ccc(Cl)cc3)n(C[C@H](O)C(F)(F)F)c2=O)nn1-c1ccccc1Cl)C(F)(F)F (single isomer, unassigned) [Example 97]
*Q* Given 3 molecules, produce a descending ranking by ratio IC50 hV2/hV1a. Your answer should be the labels, listed in the requested order.
*A* a, c, b
(a: 25.0, c: 4.5, b: 2.3)

[I] O=C1NC(c2nc(Cn3nc(-c4ccc(Cl)cc4)n(C[C@H](O)C(F)(F)F)c3=O)nn2-c2ncccc2OC(F)(F)F)CO1 (mixture of isomers) [Example 117]
[II] CC(N)c1nc(Cn2nc(-c3ccc(Cl)cc3)n(C[C@H](O)C(F)(F)F)c2=O)nn1-c1ncccc1Cl (mixture of isomers)
*Q* In the pair I and II , the larger recorded ratio IC50 hV2/hV1a belongs to which? Write down the label attached to your selection.
*A* I

Reference source: patent US20210253557A1
